Tested on: NOMO1
measurement protocol: cell viability relative to DMSO control; higher = less cytotoxic
condition context: RPMI 5 mM glucose + 10% dialyzed FBS; 48 h; 15.4 µM
Below: a set of entries, each annotated with reported cell viability.
endpoint label: cell viability (%)

INSERT INTO results (compound, endpoint_label, readout_unit, measured) VALUES
  ('COc1cc([C@@H]2c3cc4c(cc3[C@H](O)[C@H]3COC(=O)[C@@H]23)OCO4)cc(OC)c1OC', 'cell viability', '%', 20.2),
  ('COc1ccc(C(CN(C)C)C2(O)CCCCC2)cc1 (stereo not drawn)', 'cell viability', '%', 111),
  ('CCC(C)N1\N=C/N(C1=O)C2=CC=C(C=C2)N3CCN(CC3)C4=CC=C(OC[C@H]5CO[C@@](C[N]6C=NC=N6)(O5)C7=CC=C(Cl)C=C7Cl)C=C4 (stereo partly drawn)', 'cell viability', '%', 99.6),
  ('CCOC(=O)C(C#N)C\1C2=CC(=CC=C2O\C(=C1C(=O)OCC)N)Br (stereo not drawn)', 'cell viability', '%', 80.3),
  ('Cc1nn(C)c(COc2ccc(N3CCN([S+](=O)([O-])N(C)C)CC3)cc2)c1-c1cccc2c(CCCOc3cccc4ccccc34)c(C(=O)O)n(CCN3CCOCC3)c12', 'cell viability', '%', 119),
  ('CC(C)(S)[C@@H](N)C(=O)O', 'cell viability', '%', 108),
  ('c1ccc2c(Cc3c[nH]c4ccccc34)c[nH]c2c1', 'cell viability', '%', 84),
  ('O=C(Nc1nnc(-c2ccco2)o1)c1cc(-c2ccccc2)nc2ccccc12', 'cell viability', '%', 106);

====

System: SEM cells
measurement protocol: cell viability relative to DMSO control; higher = less cytotoxic
condition context: HPLM + 10% dialyzed FBS; 48 h; 0.00234 µM
Overview of reported cell viability across a group of compounds:
endpoint label: cell viability (%)

INSERT INTO assay_data (compound, subject_of_test, endpoint_label, measured) VALUES
  ('OC1=CC=C(C=C1)\C2=C\OC3=C(C(=CC(=C3)O)O)C2=O', 'SEM cells', 'cell viability', 109),
  ('CCOC(=O)C(C#N)C\1C2=CC(=CC=C2O\C(=C1C(=O)OCC)N)Br (stereo not given)', 'SEM cells', 'cell viability', 102),
  ('CC1(CN2CCC(n3c(=O)[nH]c4ccccc43)CC2)OCc2ccccc2-n2cccc21 (stereo not given)', 'SEM cells', 'cell viability', 109),
  ('C[C@@H](NCCCc1cccc(C(F)(F)F)c1)c1cccc2ccccc12', 'SEM cells', 'cell viability', 119),
  ('COc1cc2ncn(-c3cc(OCc4ccccc4[S+](C)(=O)[O-])c(C#N)s3)c2cc1OC', 'SEM cells', 'cell viability', 102);

====

Tested on: SEM cells
measurement protocol: cell viability relative to DMSO control; higher = less cytotoxic
condition context: RPMI 5 mM glucose + 10% dialyzed FBS; 48 h; 0.00234 µM
Below: a set of entries, each annotated with reported cell viability.
endpoint label: cell viability (%)

INSERT INTO measurements (smiles_data, measured) VALUES
  ('C/C(=N\NC(=S)N1CCC1)c1ccccn1', 53.4),
  ('C[C@@H]1CN(Cc2ccc(F)cc2)[C@@H](C)CN1C(=O)c1cc2c(C(=O)C(=O)N(C)C)cn(C)c2cc1Cl', 104),
  ('CCN1C[C@H](C)[N]2C(=C(O)C3=C2\C(=N/N(CC4=CC=C(F)C(=C4)Cl)C3=O)C(=O)NC)C1=O', 121),
  ('CCN1\C=C(\C(O)=O)C(=O)C2=C1N=C(N3CCNCC3)C(=C2)F', 86.8),
  ('Cc1ccc([N+](=O)[O-])cc1[S+](=O)([O-])N(C)/N=C/c1cnc2ccc(Br)cn12', 99.8),
  ('CO[C@@]12[C@H](COC(N)=O)C/3=C(N1C[C@@H]4N[C@H]24)/C(=O)/C(=C(N)\C3=O)C', 121),
  ('Cc1nc2cc(C(=O)N3CCC4(CC3)CC(=O)c3c(cnn3C(C)C)C4)ccc2[nH]1', 109),
  ('CN1C(=O)C(=C\C2=C1N=C(NC3=CC=CC(=C3)C(O)=O)N=C2)/C4=C(Cl)C=CC=C4Cl', 118),
  ('OC1=CC2=C(C=C1)C(=O)\C(=C(O2)\C3=CC(=C(O)C=C3)O)O', 98.1),
  ('COc1cc2ncn(-c3cc(OCc4ccccc4[S+](C)(=O)[O-])c(C#N)s3)c2cc1OC', 107),
  ('COc1cc(CCc2cc(NC(=O)c3ccc(N4C[C@@H](C)N[C@@H](C)C4)cc3)n[nH]2)cc(OC)c1', 122),
  ('Cc1cn[nH]c1', 121),
  ('O=C(CCc1ccc(O)cc1)c1c(O)cc(O)cc1O', 90.9),
  ('Cc1c(-c2cccc3c(CCCOc4cccc5ccccc45)c(C(=O)O)n(Cc4cccnc4)c23)c(COc2ccc(N3CCN([S+](=O)([O-])N(C)C)CC3)cc2)nn1C', 99.1);
